Tested on: XIP peptide (Xip251-270)
assay.remarks: compounds binding XIP fragment 251-270 – biochemical, small-molecule microarray, fluorescence 635/667 nm, 0.5 µg/mL protein, primary screen (AID 1183)
experimental.parameters: fluorescence 635 nm, higher = more signal
Please provide measured composite z-score for the entries that follow.
Format: numeric value only, no unit, no commentary.

// query Entry `CC[C@@H]1C=C(C(=O)O)[C@H](c2ccc(C#N)cc2)N1S(=O)(=O)c1ccc(C)cc1` : reported composite z-score = ?
// result -0.172

// query Entry `O=C(NCc1ccc(F)cc1)[C@H]1C[C@H]2C(=O)NCC(=O)N2[C@H]1c1ccc(O)cc1` : reported composite z-score = ?
// result 0.842

// query Entry CC(C)C(CO)N1C(=O)[C@@H]2C3C(=O)OCCC/C=C\[C@H]3OC23C=CCN(c2ccc4ccccc4c2)C(=O)[C@@H]13 (some centres not stated) : reported composite z-score = ?
// result 0.0118

// query Entry `[N-]=[N+]=Nc1ccccc1C[C@]1(C(=O)NCCN2CCOCC2)COC(c2ccc(OCCCO)cc2)=N1` : reported composite z-score = ?
// result 0.256

// query Entry CCCCC(O)C1C=CC2C(=O)N(C)C(=O)C2N1N(c1ccccc1)c1ccccc1 (configuration not stated) : reported composite z-score = ?
// result 0.771

// query Entry `CCOC(=O)C[C@H]1[C@H](OC(=O)c2ccc(C(=O)c3ccccc3)cc2)[C@@H](NC(=O)c2ccc3ccccc3n2)c2cc(OCCCO)ccc2N1C(=O)Cc1ccc(OC)cc1` : reported composite z-score = ?
// result -0.219

// query Entry C=CCC(OC(C)=O)[C@@H]1[C@@H](N(Cc2ccc(-c3ccccc3)cc2)C(=O)c2ccc(-c3ccccc3)cc2)c2cc(OCCCO)ccc2N1C(=O)c1ccc2ccccc2c1 (some centres not stated) : reported composite z-score = ?
// result -0.482

----------
assay.remarks: growth of efflux-deficient E. coli DRC39 – strain DRC39, OD650, 24 h, E. coli filamentation inducers, primary screen (AID 1178);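 note: growth measured as culture turbidity by optical density at 650 nm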
experimental.parameters: E. coli DRC39 acrAB, higher = more signal, called active from +8 up or from −8 down
Please mark true if the recorded z-score is equal to or greater than 0.1, and false if it falls below.

// query Is the recorded value of z-score equal to or greater than 0.1 for this compound? `CCCC[C@@H]1C[C@H]1[C@@H](NC(=O)c1cccs1)c1ccccc1C(F)(F)F`
// result false

// query Is the recorded value of z-score equal to or greater than 0.1 for this compound? C=CCC(OC(C)=O)[C@@H]1[C@@H](N(Cc2ccc(-c3cccc(C(F)(F)F)c3)o2)C(=O)c2ccc(-c3ccccc3)cc2)c2cc(OCCCO)ccc2N1C(=O)Cc1ccc2ccccc2c1 (stereo partly drawn)
// result false

// query Is the recorded value of z-score equal to or greater than 0.1 for this compound? `CCOC(=O)C1=C[C@@H](C(C)(C)C)N(S(=O)(=O)c2ccc(C)cc2)[C@H]1c1cccc2ccccc12`
// result false

// query Is the recorded value of z-score equal to or greater than 0.1 for this compound? `CCCCC(=C=CC[C@H](O)c1ccc(OCCO)cc1)CCO`
// result false

// query Is the recorded value of z-score equal to or greater than 0.1 for this compound? `COC(=O)[C@@]1(Cc2ccccc2)[C@H]2c3cc(C(=O)N4CCCC4)n(CCc4ccccn4)c3C[C@H]2CN1C(=O)c1ccccc1`
// result false

// query Is the recorded value of z-score equal to or greater than 0.1 for this compound? `C=CC[C@@]1(C(=O)NCCCOC)N=C(c2ccc(OCCCO)cc2)O[C@@H]1c1ccccc1N=[N+]=[N-]`
// result true

// query Is the recorded value of z-score equal to or greater than 0.1 for this compound? `COCCCNC(=O)[C@@H]1c2ccccc2C(=O)N(C(C)C)[C@H]1c1ccc(CO)cc1`
// result false

// query Is the recorded value of z-score equal to or greater than 0.1 for this compound? `CCCC[C@@H](O)C1=C(COC)C[C@H]2C(=O)N(Cc3ccccc3)C(=O)[C@H]2[C@H]1CO`
// result true

----------
assay.remarks: growth effects on S. cerevisiae YJM789 – YJM789 clinical isolate, OD600, 24 h, basal, primary screen (AID 1089);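 note: growth of clinical yeast isolate S. cerevisiae YJM 789 seeded 1000 cells per well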
experimental.parameters: higher = more signal, called active from +8 up or from −8 down
observation.type: z-score
Format: numeric value only, no unit, no commentary.

// query Entry `COCC(=C=CC[C@H](O)c1ccc(OCCO)cc1)CCO` : reported z-score = ?
// result 0.028

// query Entry `NC(=O)NCC#Cc1ccc2c(c1)[C@]1(C(=O)N2)[C@H](c2ccccc2OCCO)N2[C@H](c3ccccc3)[C@H](c3ccccc3)OC(=O)[C@H]2[C@@H]1C(=O)NC[C@H](O)c1ccccc1` : reported z-score = ?
// result 1.5

// query Entry CC1CC/C=C\[C@H]2OC34C=CCN(C(C)(C)C)C(=O)[C@H]3N(CCCCCO)C(=O)[C@@H]4C2C(=O)O1 (stereo not given in full) : reported z-score = ?
// result -0.0244

// query Entry `CCCC[C@@H](O)C1=C(COC)C[C@H]2C(=O)N(Cc3ccccc3)C(=O)[C@H]2[C@H]1CO` : reported z-score = ?
// result 0.332

// query Entry CC(C)C(CO)N1C(=O)[C@@H]2C3C(=O)OCCC/C=C\[C@H]3OC23C=CCN(Cn2nnc4ccccc42)C(=O)[C@@H]13 (stereo not given in full) : reported z-score = ?
// result 0.0005

// query Entry `C=CCNC(=O)[C@@H]1[C@H]2C(=O)O[C@H](c3ccccc3)[C@H](c3ccccc3)N2[C@H](c2ccccc2OCCO)[C@@]12C(=O)N(C(=O)OCCOC)c1ccc(C#CC3(O)CCCCCC3)cc12` : reported z-score = ?
// result 0.0171

// query Entry `CC(C)C[C@@H]1NC(=O)[C@@H]2C[C@H](C(=O)NCCCCCCN)[C@H](c3cccc(OCCO)c3)N2C1=O` : reported z-score = ?
// result -0.148

// query Entry `O=C(NCCN1CCOCC1)[C@@H]1c2ccccc2C(=O)N(C2Cc3ccccc3C2)[C@H]1c1ccc(CO)cc1` : reported z-score = ?
// result -2.95

// query Entry Cc1ccc(NN2C(C(O)c3c(F)cccc3Cl)C=CC3C(=O)N(C4CCCCC4)C(=O)C32)cc1 (stereo not given) : reported z-score = ?
// result -0.58

// query Entry O=C1C2C=CC(C(O)C3CC=CCC3)N(Nc3ccccc3)C2C(=O)N1c1ccccc1 (stereo not given) : reported z-score = ?
// result 0.399

// query Entry O=C(Cc1ccccc1)[C@H]1C2C=CCCC(c3ccccc3)=C2CN1Cc1ccccc1 (stereo not given in full) : reported z-score = ?
// result -0.213

// query Entry CCCCC(O)C1C=CC2C(=O)N(C)C(=O)C2N1N(c1ccccc1)c1ccccc1 (stereo not given) : reported z-score = ?
// result -0.0289

// query Entry `COc1ccc(C(=O)Nc2ccc(CN3C(=O)[C@]4(O[C@H](CC(=O)N5Cc6ccccc6C[C@H]5CO)[C@@H]([Si](C)(C)c5ccc(OC)cc5)[C@@H]4C)c4ccccc43)cc2)cc1` : reported z-score = ?
// result 0.186

// query Entry `CCOC(=O)C1=C[C@@H](C(C)(C)C)N(S(=O)(=O)c2ccc(C)cc2)[C@H]1c1cccc2ccccc12` : reported z-score = ?
// result 2.23

// query Entry COc1cc2c(cc1O)C(C1CC1)N(Cc1cccc(OC(F)(F)F)c1)CC2 (stereo not given) : reported z-score = ?
// result -2.19

----------
assay.remarks: viability profiling in MM1S myeloma cells – cell-based, resazurin fluorescence, basal, 24 h, PK04 Diversity Set, profiling panel (AID 1174);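 note: MM1S multiple myeloma cell line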
experimental.parameters: higher = more signal, called active from +8 up or from −8 down
observation.type: z-score
Format: numeric value only, no unit, no commentary.

// query Entry `NC(=O)[C@@]1(Cc2ccccc2)COC(c2ccc(OCCCO)cc2)=N1` : reported z-score = ?
// result 0.153

// query Entry `Cc1ccc(S[C@]2(C(=O)NCc3ccccc3)CC(=O)N(C3CCCCC3)[C@@H]2c2ccc(CO)cc2I)cc1` : reported z-score = ?
// result -1.82

// query Entry `COC(=O)[C@@]1(Cc2ccc(F)cc2)[C@H]2c3cc(C(=O)N4CCCC4)n(CCc4c[nH]c5ccccc45)c3C[C@H]2CN1C(=O)c1ccccc1` : reported z-score = ?
// result -2.23

// query Entry `C[N+](C)(C)CCCCCCNC(=O)[C@@H]1C[C@@H]2C(=O)N3CCC[C@H]3C(=O)N2[C@@H]1c1ccc(O)cc1` : reported z-score = ?
// result 1.02

----------
test.target: Left-right determination factor 2 (Homo sapiens)
assay.remarks: small molecules binding LEFTY2 protein – biochemical, small-molecule microarray, 635 nm fluorescence scan, primary screen (AID 1110)
experimental.parameters: higher = more signal
Please provide measured composite z-score for the entries that follow.
Format: numeric value only, no unit, no commentary.

// query Entry `CC1=C2[C@@H](CCc3ccccc3)OB(O)C[C@@H]2[C@@H]2C(=O)N(C)C(=O)[C@@H]2C1` : reported composite z-score = ?
// result 0.173

// query Entry CCCCC(O)C1C=CC2C(=O)N(C)C(=O)C2N1N(c1ccccc1)c1ccccc1 (configuration not stated) : reported composite z-score = ?
// result 0.186

// query Entry `NCCCCCNC(=O)[C@H]1C[C@H]2C(=O)N3CCC[C@H]3C(=O)N2[C@H]1c1cccc(OCCO)c1` : reported composite z-score = ?
// result -0.397

// query Entry COC(=O)C1(CC(C)C)C=C2C(=C(c3ccccc3)C(=O)C2C)CN1 (configuration not stated) : reported composite z-score = ?
// result -0.844

// query Entry C=CCC(OC(C)=O)[C@@H]1[C@@H](N(Cc2cccc3ccccc23)C(=O)Cc2ccc(F)cc2)c2cc(OCCCO)ccc2N1C(=O)c1ccc2ccccc2c1 (some centres not stated) : reported composite z-score = ?
// result 0.171

// query Entry `O=C(O)[C@@H]1[C@@H]2C(=O)N(c3ccccc3)C(=O)[C@@H]2C[C@@H]1Sc1ccccc1` : reported composite z-score = ?
// result -0.603

// query Entry `O=C1N(CCS(=O)(=O)c2ccccc2)c2ccccc2[C@H]2OC(c3ccc(OCCCO)cc3)=N[C@@]12Cc1ccccc1` : reported composite z-score = ?
// result 0.949

// query Entry `COCC(=C=CC[C@H](O)c1ccc(OCCO)cc1)CCO` : reported composite z-score = ?
// result 0.774

// query Entry `CC(C)=C1C(=O)C(c2ccccc2)=C2CN3C(=O)N(CCc4ccccc4)C(=O)[C@]3(Cc3ccc(C(F)(F)F)cc3)[C@H]21` : reported composite z-score = ?
// result -0.906

// query Entry COc1cc(NN2C(C(O)c3ccco3)C=CC3C(=O)N(C)C(=O)C32)cc(OC)c1OC (configuration not stated) : reported composite z-score = ?
// result 0.173

// query Entry `C#CCN(Cc1ccccc1Br)[C@H](/C=C/c1ccccc1)[C@@H](O)Cc1ccccc1` : reported composite z-score = ?
// result -0.81

// query Entry COc1cc(OC)c(C(O)C2C=CC3C(=O)N(Cc4ccccc4)C(=O)C3N2n2cnnc2)cc1Br (configuration not stated) : reported composite z-score = ?
// result -0.6

// query Entry C=CCC(OC(C)=O)[C@@H]1[C@@H](N(Cc2ccc(-c3cccc(C(F)(F)F)c3)o2)C(=O)Cc2ccc(OC)cc2)c2cc(OCCCO)ccc2N1C(=O)c1ccc(-c2ccccc2)cc1 (some centres not stated) : reported composite z-score = ?
// result -0.164

// query Entry CC(c1ccccc1)C(O)C1C=CC2C(=O)N(C)C(=O)C2N1Nc1ccccc1 (configuration not stated) : reported composite z-score = ?
// result -0.541

// query Entry `COC(=O)[C@@H]1N=C(c2ccc(OCCCO)cc2)O[C@@H]1C` : reported composite z-score = ?
// result 0.309

// query Entry `C=C(C(=O)CC[C@H](OC(=O)c1ccccc1-c1ccccc1C(=O)O)c1cccc(OCCO)c1)C(C)C` : reported composite z-score = ?
// result -0.103

// query Entry CCCC=C(CCC)[C@@H](NS(=O)(=O)CC12CCC(CC1=O)C2(C)C)c1ccc(C(=O)OC)cc1 (some centres not stated) : reported composite z-score = ?
// result 0.306
